- Tested on: BC-3 cells (Lymphoma)
- ASSAY INFO: In vitro cellular activity in BC-3
- Type: cell-based
- CONDITION DETAILS: Homo sapiens; BC-3, Lymphoma; P53 WT; ATM p.H1083Y; ATR WT; Test#2; read-out: IC50 (uM) Test#2
READOUT TYPE: IC50 (µM)
Give bare numbers, in µM.

Check the records and state IC50 for CCN1[C@@H](C(=O)NC23CCC(C(=O)O)(CC2)CC3)[C@H](c2cccc(Cl)c2F)[C@]2(C(=O)Nc3cc(Cl)ccc32)C12CCCCC2 [Compound C]
0.0858

###

- Test system: AGS cells (Gastric cancer)
- ASSAY INFO: In vitro cellular activity in AGS
- Format: cell-based
- CONDITION DETAILS: Homo sapiens, P53 WT, ATM WT, ATR WT, Test#1, read-out: IC50 (uM) Test#1
READOUT TYPE: IC50 (µM)
Answers are plain numbers, in µM.

Report IC50, nothing else, for this compound: CCN1[C@@H](C(=O)NC23CCC(C(=O)O)(CC2)CC3)[C@H](c2cccc(Cl)c2F)[C@]2(C(=O)Nc3cc(Cl)ccc32)C12CCCCC2
0.01

###

- Test system: ZR-75-30 cells (Breast cancer)
- ASSAY INFO: In vitro cellular activity in ZR-75-30
- Type: cell-based
- CONDITION DETAILS: Homo sapiens; ZR-75-30, Breast cancer; P53 WT; ATM WT; ATR p.Q1926H; Test#2; read-out: IC50 (uM) Test#2
READOUT TYPE: IC50

Given CCN1[C@@H](C(=O)NC23CCC(C(=O)O)(CC2)CC3)[C@H](c2cccc(Cl)c2F)[C@]2(C(=O)Nc3cc(Cl)ccc32)C12CCCCC2 , respond with its IC50.
0.301 µM

###

- System: LoVo cells (Colon cancer)
- ASSAY INFO: In vitro cellular activity in LoVo
- Type: cell-based
- CONDITION DETAILS: Homo sapiens, P53 WT, ATM WT, ATR WT, Test#1, read-out: IC50 (uM) Test#1
- Experimental: Activity of Compound C is tested in various cancer cell lines with indicated TP53, ATM and ATR genetic status. The activity (IC50 in uM) of Compound C in TP53^WT ATM^WT cell lines versus TP53^WTATR^MUT or TP53^WTATM^MUT cell lines was plotted (Figure. 4, MUT indicated mutant; WT indicated Wild-type).
READOUT TYPE: IC50

Give the reported IC50 for this compound. CCN1[C@@H](C(=O)NC23CCC(C(=O)O)(CC2)CC3)[C@H](c2cccc(Cl)c2F)[C@]2(C(=O)Nc3cc(Cl)ccc32)C12CCCCC2
0.069 µM

###

- System: MV-4-11 cells (Leukemia)
- ASSAY INFO: In vitro cellular activity in MV-4-11
- Assay type: cell-based
- CONDITION DETAILS: Homo sapiens, MV4-11; MV-4-11, Leukemia; P53 WT; ATM WT; ATR WT; Test#1; read-out: IC50 (uM) Test#1
READOUT TYPE: IC50 (µM)
Give bare numbers, in µM.

Note down IC50 recorded for CCN1[C@@H](C(=O)NC23CCC(C(=O)O)(CC2)CC3)[C@H](c2cccc(Cl)c2F)[C@]2(C(=O)Nc3cc(Cl)ccc32)C12CCCCC2
0.108
